meta.source: paper PMC12520770

# experiment: DPPH radical scavenging assay
# Type: biochemical
# measurement-parameters: read-out: SC50 (the source's name)
# Description: The 1,1-diphenyl−2-picrylhydrazyl (DPPH) assay is a technique employed to assess the antioxidant potential of a chemical by measuring its efficacy in scavenging free radicals. DPPH produces stable free radicals in methanol. Upon exposure to an antioxidant, DPPH experiences a colour transformation from purple to yellow, which is quantified using an ELISA reader at a wavelength of 517 nm. […]
experimental-endpoint: EC50 (µM)

Reference set, count: 7
O=c1oc2ccccc2c(O)c1CNc1ccccc1 [compound 2j] ... 53.3
O=c1oc2ccccc2c(O)c1CNc1ccc(S(=O)(=O)O)cc1 [compound 2i] ... 7.36
O=c1oc2ccccc2c(O)c1Cn1ccnc1 [2e] ... 80.9
CNCc1c(O)c2ccccc2oc1=O [compound 2a] ... 62.5
CCCNCc1c(O)c2ccccc2oc1=O [2h] ... 65.3
O=C(O)c1ccc(NCc2c(O)c3ccccc3oc2=O)cc1 [2c] ... 59.7
N#Cc1ccc(NCc2c(O)c3ccccc3oc2=O)cc1 [compound 2d] ... 35.8

I = O=c1oc2ccccc2c(O)c1CNC1CCCC1 [compound 2f]
II = O=c1oc2ccccc2c(O)c1CN1CCOCC1 [2g]
III = Cc1c(C)c2c(c(C)c1O)CCC(C)(C(=O)O)O2 (centres unmarked) [Trolox, reference compound]
IV = CC(C)NCc1c(O)c2ccccc2oc1=O [compound 2b]
Would you mind ranking these compounds by ascending EC50? # format: label list in the order the request specifies
III, IV, I, II
(III: 6.12 µM, IV: 31.3 µM, I: 45.9 µM, II: 72.2 µM)
